System Name: Cyclin-dependent kinase 5 (Homo sapiens, UniProt Q00535)
Sequence (Q00535 whole entry): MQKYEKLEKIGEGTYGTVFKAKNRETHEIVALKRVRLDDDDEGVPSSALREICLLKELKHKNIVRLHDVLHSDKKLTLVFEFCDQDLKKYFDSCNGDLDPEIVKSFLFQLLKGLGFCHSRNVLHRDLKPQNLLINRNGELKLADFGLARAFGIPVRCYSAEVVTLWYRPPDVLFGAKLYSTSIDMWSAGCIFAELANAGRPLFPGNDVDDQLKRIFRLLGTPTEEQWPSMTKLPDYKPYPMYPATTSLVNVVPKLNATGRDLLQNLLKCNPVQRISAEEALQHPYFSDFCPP
Protocol Text: Inhibition of recombinant CDK5 after 1 hr by scintillation counter analysis in presence of gamma-[33P]ATP
pKi: −log10 of the molar value.
Measurement Label: pKi

chem_smiles=CC(C)(C)Nc1c(Nc2ccnc(Nc3ccc(-c4ccncc4)cc3)n2)c(=O)c1=O recorded_value=6.38

---

System Name: Serine/threonine-protein kinase PLK1 (Homo sapiens, UniProt P53350)
Sequence (P53350 whole entry): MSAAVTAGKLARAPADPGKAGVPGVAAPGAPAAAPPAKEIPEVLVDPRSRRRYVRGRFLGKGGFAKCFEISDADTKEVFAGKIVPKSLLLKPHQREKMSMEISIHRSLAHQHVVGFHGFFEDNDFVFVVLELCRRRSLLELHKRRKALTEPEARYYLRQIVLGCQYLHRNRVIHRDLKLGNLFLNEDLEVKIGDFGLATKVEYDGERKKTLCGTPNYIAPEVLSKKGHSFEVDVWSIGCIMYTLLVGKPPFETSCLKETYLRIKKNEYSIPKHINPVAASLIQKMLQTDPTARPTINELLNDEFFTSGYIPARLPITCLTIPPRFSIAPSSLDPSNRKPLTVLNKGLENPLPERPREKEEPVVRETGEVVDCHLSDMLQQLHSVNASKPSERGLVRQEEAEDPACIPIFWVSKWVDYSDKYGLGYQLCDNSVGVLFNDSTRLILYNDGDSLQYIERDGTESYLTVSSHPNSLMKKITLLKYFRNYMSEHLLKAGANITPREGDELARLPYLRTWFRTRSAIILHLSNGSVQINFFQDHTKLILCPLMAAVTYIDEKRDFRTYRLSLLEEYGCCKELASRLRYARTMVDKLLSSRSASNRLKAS
Protocol Text: Inhibition of recombinant GST-tagged PLK1 using biotin-ahx-AKMETTFYDDALNASFLPSEKKK-amide as substrate after 30 mins by scintillation counting analysis in presence of gamma-[33P]ATP
pKi: −log10 of the molar value.
Attribute: pKi
Measurement Label: pKi

compound=C[C@@H](Nc1c(Nc2ccnc(Nc3ccccc3)n2)c(=O)c1=O)C(C)(C)C recorded_value=6.33
compound=CC(C)(C)Nc1c(Nc2ccnc(Nc3ccc4ncsc4c3)n2)c(=O)c1=O recorded_value=7.37
compound="CC(C)CC(C)Nc1c(Nc2ccnc(Nc3ccc(-c4ccccc4)cc3)n2)c(=O)c1=O (stereo not given)" recorded_value=5.93
compound=C[C@@H](Nc1c(Nc2ccnc(Nc3ccc(OC(F)(F)F)cc3)n2)c(=O)c1=O)C(C)(C)C recorded_value=6.21
compound=CC(=O)N1CCc2cc(Nc3nccc(Nc4c(NC(C)(C)C)c(=O)c4=O)n3)ccc21 recorded_value=7.70
